- ASSAYED_TARGET: GABAA receptor ([35S]-TBPS binding, rat brain cortical membranes)
- PROCEDURE_DETAILS: Steroid inhibition of [35S]-TBPS binding (radioligand displacement)
- ASSAY_SETUP: 3 nM [35S]-TBPS, in the presence of 5 μM GABA
pIC50: −log10 of the molar value.
PROPERTY_LABEL: pIC50

INSERT INTO results (molecule, property_label, result) VALUES
  ('COC[C@]12CC[C@@](C)(O)C[C@@H]1CC[C@H]1[C@@H]3CC[C@H](C(=O)Cn4cc5ccc(OC)cc5n4)[C@@]3(C)CC[C@@H]12 [Compound 48]', 'pIC50', '7.00 to 7.30'),
  ('COC[C@]12CC[C@@](C)(O)C[C@H]1CC[C@H]1[C@@H]3CC[C@H](C(=O)Cn4nc5cccc(OC)c5n4)[C@@]3(C)CC[C@@H]12', 'pIC50', '> 8.00'),
  ('COC[C@]12CC[C@@](C)(O)C[C@@H]1CC[C@H]1[C@@H]3CC[C@H](C(=O)Cn4ccnc4C#N)[C@@]3(C)CC[C@@H]12', 'pIC50', '6.30 to 7.00');

q: Which pIC50 reading was recorded for the molecule "COC[C@]12CC[C@@](C)(O)C[C@@H]1CC[C@H]1[C@@H]3CC[C@H](C(=O)Cn4cc(OC(C)C)cn4)[C@@]3(C)CC[C@@H]12" ?
a: 7.00 to 7.30

q: Which pIC50 reading was recorded for the molecule "COC[C@]12CC[C@@](C)(O)C[C@H]1CC[C@H]1[C@@H]3CC[C@H](C(=O)Cn4cc5ccc(F)cc5n4)[C@@]3(C)CC[C@@H]12" ?
a: > 8.00

q: Which pIC50 reading was recorded for the molecule COC[C@]12CC[C@@](C)(O)C[C@@H]1CC[C@H]1[C@@H]3CC[C@H](C(=O)Cn4cc5ccc(OC)cc5n4)[C@@]3(C)CC[C@@H]12 [Compound 42] ?
a: 7.30 to 8.00
